# target-entity: T1, Dimeric human CD48-mFc (human)
# T1 chain: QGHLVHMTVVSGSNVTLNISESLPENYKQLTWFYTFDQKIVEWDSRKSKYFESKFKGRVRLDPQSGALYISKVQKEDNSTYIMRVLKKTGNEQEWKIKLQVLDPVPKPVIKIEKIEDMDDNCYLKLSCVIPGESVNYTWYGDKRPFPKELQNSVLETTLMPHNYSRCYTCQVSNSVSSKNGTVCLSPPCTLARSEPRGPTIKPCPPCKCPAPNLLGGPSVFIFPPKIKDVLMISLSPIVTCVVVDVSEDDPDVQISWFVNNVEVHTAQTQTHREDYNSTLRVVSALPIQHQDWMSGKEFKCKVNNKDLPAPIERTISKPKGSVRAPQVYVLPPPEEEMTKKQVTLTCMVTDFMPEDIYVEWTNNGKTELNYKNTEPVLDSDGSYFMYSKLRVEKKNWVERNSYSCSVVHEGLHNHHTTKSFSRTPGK
# experiment-description: SPR (Biacore T100), 25 C, antibody captured by anti-Fc, dimeric CD48-mFc in solution
I'd be grateful if you could share measured kon for these entries.

Ask | Give a short answer stating reported kon for H4H1713N (antibody, human IgG4, V domains shown, Human IgG4 Fc (prefix H4H)) VH: QVQLVQSGAEVKKPGASVKVSCKASGHTFTNYYIHWVRQAPGQGLEWMGITNPNDGNTRYAQKFQGRISMTWDTSTSTVFMELSSLKSEDTAVYYCAGLRYWFFDLWGRGTPVTVSS VL: DIQMTQSPSSVSASVGDRVTITCRASQDISSWLAWYQQKPGKAPNLLIFAASSLQSGVPSRFSGSGSGTDFTLTISSLQPEDFGTYYCQQTDNFPRTFGQGTKVEIN .
Reply | 894000 M⁻¹ s⁻¹

Ask | In one line, give reported kon of the entry H2M1707N (antibody, mouse IgG2, V domains shown) VH: EGQLLESGGGLAQPGGSLRLSCAASGITFGRYAMSWVRQAPGKGLEWVSLISGSGGSTYHADSVKGRFTISRDNSKNTLYLQMNSLRAEDTAVYYCAIYNNYNWFDPWGQGTLVTVSS VL: EIVLTQSPGTLSLSPGERATLSCRASQSVSSNYLAWYQQKPGQAPRLLIYDASSRATDIPDRFSGSGSGTDFTLTISRLEPEDFAVYYCQQYGSSPRTFGQGTKVEIK .
Reply | 714000 M⁻¹ s⁻¹

Ask | Tell us which kon value is on record for H2M1712N (antibody, mouse IgG2, V domains shown, Human variable domains, mouse IgG2 Fc (prefix H2M)) VH: QIQLVQSGAEMKRPGTSVKVSCKASGYTFSSYGINWVRQAPGQGLEWMGWISAYNGDTNYAQKLQGRVTMTTDTSTTTAYMEVRSLRSDDTAVYYCARFLTGTKDLYYGMDVWGQGTTVTVSS VL: DIQMTQSPSSLSASVGDRVTITCQASQDISNFLNWYQQKPGKAPDLLINDASILETGVPSRFSGSGSGTDFTLTINSLQPEDIATYYCQQYDNLPLTFGGGTKVEIK
Reply | 1.84e+06 M⁻¹ s⁻¹

Data provenance is patent US20130230533A1.
